assayed_system: MAST1, Q9Y2H9
Sequence (Q9Y2H9 962-1065): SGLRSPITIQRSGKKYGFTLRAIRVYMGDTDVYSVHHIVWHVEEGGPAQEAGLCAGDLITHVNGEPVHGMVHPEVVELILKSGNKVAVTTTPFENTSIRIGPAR
assay_text: holdup assay
Parameters: key: below the threshold = too weak to quantify, mostly under pKd 3.1 to 4
condition_set: plain residues with an end cap or a label only (N-terminal biotin on a linker: ttds)
metric_name: pKd

{"binder": "RLPKIKETTV [FRMPD4, Q14CM0]", "metric_name": "pKd", "recorded_measurement": 4.26}
{"binder": "PRVKPQRSKV [PPP1R13L, Q8WUF5]", "metric_name": "pKd", "recorded_measurement": 3.71}
{"binder": "FHPLGADSQV [SLC2A1, P11166]", "metric_name": "pKd", "recorded_measurement": "below the threshold"}
{"binder": "RHTTSTETAV [HPV30-E6, P36809]", "metric_name": "pKd", "recorded_measurement": 4.66}
{"binder": "DKDPHSETAL [TMIGD1, Q6UXZ0]", "metric_name": "pKd", "recorded_measurement": 4.85}
{"binder": "SGSRPSATVV [HPV73-E6, Q82005]", "metric_name": "pKd", "recorded_measurement": 3.73}

Which pKd is listed for SKPTRRETEV [HPV35-E6, P27228] ? below the threshold

Which pKd is listed for RLQRRRETQV [HPV18-E6, P06463] ? 5.33

Which pKd is listed for KKYVDAETSL [SLC4A7, Q9Y6M7] ? 5.32

Which pKd is listed for QRQARSETLV [HPV59-E6, Q81964] ? 4.62

Which pKd is listed for PVRVCEETSL [OTULIN, Q96BN8] ? 5.3

Which pKd is listed for VDFPPKESSL [ACVR2A, P27037] ? 4.77

Which pKd is listed for SSLQSLETSV [ATP2B4, P23634] ? 5.26

Which pKd is listed for EMDRRPATVV [PLCB4, Q15147] ? 4.48

Which pKd is listed for EVVHTPETSV [SLC16A3, O15427] ? 4.11

Which pKd is listed for RPLPRKVSQL [DOCK4, Q8N1I0] ? 3.86

Which pKd is listed for NDPAWDETNL [ARHGEF7, Q14155;Q14155-1] ? 4.92

Cited source: paper PMC9482650
